Origin of measurements: patent EP1203770A1

# TARGET ENTITY: HIV-1 protease (Human immunodeficiency virus type 1 group M subtype B, UniProt P04585)
# Construct: The protease (or proteinase), consisting of only 99 amino acids, is among the smallest enzymes known
# MEASUREMENT PROTOCOL: In vitro HIV protease inhibitory assay (HIV Protease FITC Assay)
# Assay type: biochemical
# RECORDED CONDITIONS: HIV-1 Dose 3.300 uM; read-out: HIV-1 Protease % Inhib
REPORTED PROPERTY: inhibition at 3.3 µM (%)
Field format: number, assumed %, no unit text.

So what's the measured inhibition at 3.3 µM for this one? CCC(CC1CC(=O)N(Cc2ccccc2)C1)c1cc(O)c(C(c2ccccc2)C2CC2)c(=O)o1 (stereo not shown)
64.3

Suppose we examine the compound CCCCC1(Cc2ccccc2)CC(O)=C(C(CCc2ccccc2)c2ccccc2)C(=O)O1 (stereo not shown) ; what inhibition at 3.3 µM value has been reported?
46

Fill blank: measured inhibition at 3.3 µM of the compound CC(C)C(Cc1ccccc1)c1cc(O)c(C(c2ccccc2)C2CC2)c(=O)o1 (stereo not shown) is ____.
95.9

Look at this compound and give its reported inhibition at 3.3 µM. "O=c1oc(C(CC2CC2)CC2CC2)cc(O)c1C(Cc1ccccc1)Cc1ccccc1"
111

====

What inhibition at 1.1 µM was measured for each of the following?
# TARGET ENTITY: HIV-1 protease (Human immunodeficiency virus type 1 group M subtype B, UniProt P04585)
# Construct: The protease (or proteinase), consisting of only 99 amino acids, is among the smallest enzymes known
# MEASUREMENT PROTOCOL: In vitro HIV protease inhibitory assay (HIV Protease FITC Assay)
# Type: biochemical
# RECORDED CONDITIONS: HIV-1 Dose 1.100 uM; read-out: HIV-1 Protease % Inhib
Kindly provide the numeric value in % only, without the unit symbol.

Query: inhibition at 1.1 µM; subject: CCC(Cc1ccccc1)c1cc(O)c(C(c2cccc(NS(=O)(=O)c3ccccc3)c2)C2CC2)c(=O)o1 (centres unmarked) [Example 178]
83.1

If you can, please state the reported inhibition at 1.1 µM value of CCC(CCCCl)c1cc(O)c(C(c2ccccc2)C2CC2)c(=O)o1 (centres unmarked) [Example 64] .
87.7

State the recorded inhibition at 1.1 µM for this entry: C=CC(C1=C(O)CC(CCCC)(Cc2ccccc2)OC1=O)c1ccccc1 (centres unmarked) [Example 219]
35.3

I would be grateful if you could share the reported inhibition at 1.1 µM for CCC(Cc1ccccc1)c1cc(O)c(C(c2cccc(NC(=O)c3ccc(C#N)cc3)c2)C2CC2)c(=O)o1 (centres unmarked) [Example 227] .
49.2

Which inhibition at 1.1 µM value is on record for O=c1oc(CCCC(F)(F)F)cc(O)c1C(c1ccccc1)C1CC1 (centres unmarked) [Example 118] ?
20

What value of inhibition at 1.1 µM has been reported for the following compound? O=C(CCn1ccc2ccccc21)Nc1cccc(C(c2c(O)cc(C(CC3CC3)CC3CC3)oc2=O)C2CC2)c1 (centres unmarked) [Example 39]
60.6

====

# TARGET ENTITY: HIV-1 protease (Human immunodeficiency virus type 1 group M subtype B, UniProt P04585)
# Construct: The protease (or proteinase), consisting of only 99 amino acids, is among the smallest enzymes known
# MEASUREMENT PROTOCOL: In vitro HIV protease inhibitory assay (HIV Protease FITC Assay)
# Type: biochemical
# RECORDED CONDITIONS: read-out: HIV-1 Protease % Inhib
REPORTED PROPERTY: inhibition at 0.37 µM (%)
Record the value in %, omitting the unit from your answer.

What measured inhibition at 0.37 µM goes with CCC(Cc1ccccc1)c1cc(O)c(C(c2cccc(NC(=O)[C@H](Cc3c[nH]cn3)NC(=O)OC(C)(C)C)c2)C2CC2)c(=O)o1 (stereo partly shown) [Example 226] ?
93.9

Can you look up the measured inhibition at 0.37 µM of CCCC1(CCc2ccccc2)CC(O)=C(C(CCc2ccccc2)c2ccccc2)C(=O)O1 (stereo not shown) [Example 171] for me?
39.5
